Please find below pKi data on Tyrosine-protein kinase JAK3 (Homo sapiens) compiled from the literature.
pKi: −log10 of the molar value.

CC(C)[C@H](C(=O)NCC(F)(F)F)N(C)c1nc(-c2c[nH]c3ncncc23)ncc1F	> 6.30
C[C@H](Nc1cc(-c2c(N)nn3cccnc23)nc(OCC2CCCO2)n1)c1ccc(F)cc1F (some centres unmarked)	7.00 to 8.00
CN(C)c1ccc(CNC(=O)c2c(N)nn3cc(-c4ccncn4)cnc23)cc1	< 5.30
O=C(NCC(F)(F)F)[C@H]1CCCN1c1nc(-c2c[nH]c3ncncc23)ncc1F	> 6.30
Nc1nn2cc(-c3ccc(C(=O)N4CCCC(CO)C4)cn3)cnc2c1-c1ccccn1 (centres unmarked)	5.30 to 6.30

Summary for this molecule, `c1cncc(-c2cnoc2-c2c[nH]c3ncccc23)c1` : pKi is 4.90 to 6.00

Summary for this molecule, `Nc1nc(Nc2ccc(F)cc2)nn1-c1ncc(F)c(N2CCC[C@@H]2C(=O)NCC(F)(F)F)n1` : pKi is 5.00 to 6.00

Summary for this molecule, `C[C@@H](O)CNC(=O)c1cc(-c2ncnc3[nH]ccc23)c[nH]1` : pKi is 6.30 to 7.00

###

pKi: −log10 of the molar value.
Please find below pKi data on Tyrosine-protein kinase JAK3 (Homo sapiens) compiled from the literature.

Take a look at these entries with their results.
Nc1nn2cc(-c3cncnc3)cnc2c1-c1ccccn1	< 5.30
CN(CCO)c1cc(-n2cnc(Nc3ccccc3)n2)ccn1	6.00 to 8.00
CC(C(=O)NC1CCCC1)n1cc(-c2ncnc3[nH]ccc23)cn1 (centres unmarked)	> 7.00
CC(C)(Nc1nc(-c2ccc3nccnc3c2)ncc1F)C(=O)NCC(F)(F)F	≥ 6.00
Nc1nn2cc(-c3ccccc3C(F)(F)F)cnc2c1-c1ccccn1	< 5.30

Summary for this compound, `Nc1cccc(Nc2nccc(-c3ccc(NC(=O)c4ccco4)cc3)n2)c1` : pKi is ≥ 6.00

Summary for this compound, `CN(C)Cc1ccnc(-c2cnc3[nH]cc(-c4oncc4-c4cccc(F)c4F)c3c2)c1` : pKi is > 6.70

Summary for this compound, COC(=O)C1CCCN1C(=O)c1cccc(-c2cnc3c(-c4ccccn4)c(N)nn3c2)n1 (centres unmarked) : pKi is < 5.30

Summary for this compound, `C[C@@H]1CC[C@@H](C)N1C(=O)c1cc(-c2ncnc3[nH]ccc23)cn1C` : pKi is 6.30 to 7.00

Summary for this compound, CC(CO)NC(=O)C(C)n1cc(-c2ncnc3[nH]ccc23)cn1 (centres unmarked) : pKi is 6.30 to 7.00

Summary for this compound, `CCCNC(=O)C(C)(C)Nc1nc(-c2c[nH]c3ncc(Cl)cc23)nc2cc(OC)c(OC)cc12` : pKi is ≤ 7.00

Summary for this compound, `CC(C)CC(=O)N(C)c1nc(-c2ncnc3[nH]ccc23)cs1` : pKi is > 7.00

Summary for this compound, `O=C(NCC(F)(F)F)[C@H]1CCCN1c1ccnc(-c2ccc(O)cc2)n1` : pKi is 5.00 to 6.00

###

Please find below Ki data on Tyrosine-protein kinase JAK3 (Homo sapiens) compiled from the literature.

O=C(NCC1CCCO1)c1cccc(-c2ccnc(Nc3ccccc3)n2)c1 (centres unmarked)	≤ 1000 nM

Summary for this compound, `CCN(CCN)C(=O)c1cccc(-c2cnc3c(-c4ccccn4)c(N)nn3c2)n1` : Ki is > 5000 nM

Summary for this compound, `CS(=O)(=O)N1CCC(C(=O)Nc2nc(-c3ncnc4[nH]ccc34)cs2)CC1` : Ki is < 100 nM

Summary for this compound, `CN1CCN(c2ccc(-c3cnc4[nH]cc(-c5nncn5-c5cccc(F)c5F)c4c3)cn2)CC1` : Ki is 1000 to 12500 nM

Summary for this compound, `CN(CC1OCCO1)C(=O)c1ccc(-c2cnc3c(-c4ccccn4)c(N)nn3c2)nc1` : Ki is 500 to 5000 nM

Summary for this compound, `O=C(NCC(F)(F)F)[C@H](CO)Nc1nc(-c2c[nH]c3ncncc23)ncc1F` : Ki is < 500 nM

Summary for this compound, `CC1=Nc2ccccc2-c2ccnc3[nH]cc1c23` : Ki is 250 to 2500 nM

Summary for this compound, `O=C(c1ccc(-c2ncnc3[nH]ccc23)o1)N(CCC(F)(F)F)CC1CCCC1` : Ki is < 100 nM
